Antagonistic Rate (%) values by entry
# targetUnderTest: T1, human TRH receptor protein (human)
# T1 chain: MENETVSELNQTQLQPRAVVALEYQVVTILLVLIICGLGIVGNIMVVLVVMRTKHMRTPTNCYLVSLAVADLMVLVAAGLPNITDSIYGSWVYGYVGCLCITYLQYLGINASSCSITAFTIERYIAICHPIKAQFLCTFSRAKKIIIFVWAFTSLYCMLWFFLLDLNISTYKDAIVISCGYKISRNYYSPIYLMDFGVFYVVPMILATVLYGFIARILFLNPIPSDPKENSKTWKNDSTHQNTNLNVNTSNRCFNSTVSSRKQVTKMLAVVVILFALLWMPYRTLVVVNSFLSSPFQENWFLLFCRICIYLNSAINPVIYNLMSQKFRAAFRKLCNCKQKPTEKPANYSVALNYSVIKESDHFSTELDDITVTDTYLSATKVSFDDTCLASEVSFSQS
# assayProcedure: competition with 10 nM 3H-TRH, CHO cells expressing human TRH receptor; compound at 10^-4 M
Square brackets hold non-standard residues; d marks the D form. Ends that are not written are not given here. Blc = γ-butyrolactone-γ-carbonyl group; pGlu = O=C1CC[C@@H](C(=O)O)N1; Nva = CCC[C@H](N)C(=O)O
quantity: Antagonistic Rate (%)

binder="[pGlu]-His-Pro [pGLU His Pro]" quantity="Antagonistic Rate (%)" reportedresult=40.8
binder="[pGlu]-[Nva]-Pro-NH2 (SMILES CCC[C@H](NC(=O)[C@@H]1CCC(=O)N1)C(=O)N1CCC[C@H]1C(N)=O) [pGlu NVal Pro NH2]" quantity="Antagonistic Rate (%)" reportedresult=78.6
binder="[pGlu]-Phe-Pro-NH2 [pGlu Phe Pro NH2]" quantity="Antagonistic Rate (%)" reportedresult=96.2
binder="Blc-His-Pro [Blc His Pro]" quantity="Antagonistic Rate (%)" reportedresult=0.7
binder="HP (cyclic dipeptide (diketopiperazine) of His and Pro) [Cyclo(His--Pro) His Pro-Diketopiperazine]" quantity="Antagonistic Rate (%)" reportedresult=-1.1
